Below, each entry is listed with its recorded EC50.
Molecular target: MOR beta-arrestin (Homo sapiens, UniProt P35372)
Assay: MOR beta-arrestin agonist test (PathHunter, U2OS/OPRM1 cell line)
Conditions: Human Mu opioid β-arrestin U2OS/OPRM1 cell line; read-out: EC50 for activating beta-arrestin signaling pathway

Molecule | Subject of test | EC50
Fc1ccc([C@]2(CCNC3Cc4ccccc4C3)CCOC3(CCOCC3)C2)nc1 | MOR beta-arrestin (Homo sapiens, UniProt P35372) | > 30 µM
Cc1c(Cl)cccc1CNCCC1(c2ccc(F)cn2)CCOC2(CCOCC2)C1 (stereo not drawn) | MOR beta-arrestin (Homo sapiens, UniProt P35372) | > 30 µM
Fc1ccc([C@]2(CCNCc3cccc(Cl)c3Cl)CCOC3(CCOCC3)C2)nc1 | MOR beta-arrestin (Homo sapiens, UniProt P35372) | > 30 µM

----------
Target: MOR (Homo sapiens, UniProt P35372)
Sequence (P35372 whole entry): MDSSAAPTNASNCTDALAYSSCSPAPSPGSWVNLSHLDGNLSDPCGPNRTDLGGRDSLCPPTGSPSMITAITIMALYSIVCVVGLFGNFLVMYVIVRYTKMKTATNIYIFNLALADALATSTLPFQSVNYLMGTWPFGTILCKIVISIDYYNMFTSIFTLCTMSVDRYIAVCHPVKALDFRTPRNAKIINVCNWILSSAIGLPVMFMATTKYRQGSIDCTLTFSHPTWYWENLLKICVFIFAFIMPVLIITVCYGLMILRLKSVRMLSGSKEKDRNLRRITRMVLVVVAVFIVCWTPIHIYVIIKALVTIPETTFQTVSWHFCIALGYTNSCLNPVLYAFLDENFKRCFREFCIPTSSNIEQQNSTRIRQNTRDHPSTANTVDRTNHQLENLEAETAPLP
Test: Agonist test on MOR, cAMP level (CHO-K1/OP3 cells, cAMP assay kit)
Conditions: forskolin-stimulated cAMP, read-out: EC50 agonizing MOR receptor to affect cAMP level
pEC50: −log10 of the molar value.
Metric name: pEC50

Compound | Metric name | Measured result
Fc1ccc(C2(CCNC3Cc4cccc(Cl)c4C3)CCOC3(CCOCC3)C2)nc1 (stereo not drawn) | pEC50 | 8.67
Fc1ccc(C2(CCN[C@H]3CCc4c(Cl)cccc43)CCOC3(CCOCC3)C2)nc1 (stereo partly drawn) | pEC50 | 8.88
Fc1ccc(C2(CCNC3CCc4ccc(Cl)cc43)CCOC3(CCOCC3)C2)nc1 (stereo not drawn) | pEC50 | 8.66
Fc1ccc(C2(CCN[C@H]3CCc4ccc(F)cc43)CCOC3(CCOCC3)C2)nc1 (stereo partly drawn) | pEC50 | 9.36
Fc1ccc(C2(CCNC3Cc4cccc(Br)c4C3)CCOC3(CCOCC3)C2)nc1 (stereo not drawn) | pEC50 | 8.55
Fc1ccc(C2(CCNCc3cccc(Cl)c3)CCOC3(CCOCC3)C2)nc1 (stereo not drawn) | pEC50 | 8.11
Fc1ccc(C2(CCN[C@H]3CCc4ccccc43)CCOC3(CCOCC3)C2)nc1 (stereo partly drawn) | pEC50 | 9.10
Fc1ccc(C2(CCNCc3cccc(Cl)c3F)CCOC3(CCOCC3)C2)nc1 (stereo not drawn) | pEC50 | 7.62
Cc1cccc2c1CC[C@@H]2NCCC1(c2ccc(F)cn2)CCOC2(CCOCC2)C1 (stereo partly drawn) | pEC50 | 8.81
Fc1ccc(C2(CCNC3Cc4ccccc4C3)CCOC3(CCOCC3)C2)nc1 (stereo not drawn) | pEC50 | 8.06
Fc1ccc(C2(CCNCc3cccc(Cl)c3Cl)CCOC3(CCOCC3)C2)nc1 (stereo not drawn) | pEC50 | 7.76
Cc1c(Cl)cccc1CNCCC1(c2ccc(F)cn2)CCOC2(CCOCC2)C1 (stereo not drawn) | pEC50 | 8.12
